- target_entity: SCD5 (Homo sapiens, UniProt Q86SK9)
- Construct: host or cells: Saccharomyces cerevisiae ole1Δ strain (W303 pdr1Δ pdr3Δ background), plasmid pRS316, TDH3 promoter
- Sequence (Q86SK9 whole entry): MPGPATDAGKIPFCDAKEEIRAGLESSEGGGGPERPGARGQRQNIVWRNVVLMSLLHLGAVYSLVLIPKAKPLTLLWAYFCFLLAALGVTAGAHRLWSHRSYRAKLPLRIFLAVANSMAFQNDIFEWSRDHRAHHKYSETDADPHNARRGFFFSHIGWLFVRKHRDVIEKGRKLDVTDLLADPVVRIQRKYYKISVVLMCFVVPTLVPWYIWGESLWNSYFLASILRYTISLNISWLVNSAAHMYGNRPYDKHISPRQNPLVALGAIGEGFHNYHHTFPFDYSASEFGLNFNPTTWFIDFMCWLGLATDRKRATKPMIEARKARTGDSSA
- protocol_text: Growth inhibition of yeast (ole1Δ) expressing human SCD5 as the sole desaturase
- Assay type: cell-based
- cond: read-out: SCD5 IC50
measurement_label: pIC50
# pIC50: negative log10 of molar concentration; output just the value

Data point: Cn1nc(NC(=O)N2CCC(Cc3ccc(F)cc3)CC2)ccc1=O ; pIC50 = 5.93

----------
- target_entity: SCD5 (Homo sapiens, UniProt Q86SK9)
- Construct: host or cells: Saccharomyces cerevisiae ole1Δ strain (W303 pdr1Δ pdr3Δ background), plasmid pRS316, TDH3 promoter
- protocol_text: Growth inhibition of yeast (ole1Δ) expressing human SCD5 as the sole desaturase
- Type: cell-based
- cond: yeast strain with SCD5 plasmid, OD600 growth read at 40 h; read-out: SCD5 IC50
measurement_label: IC50
A complete answer gives the number followed by the unit.

Illustrative cases are given below, each with its answer.
> print(dat)
                                   compound                        target.entity  measurement
1  Cn1nc(NC(=O)N2CC[C@H](Oc3cc(F)cc(F)c3)C2)ccc1=O [Compound 30]  SCD5 (Homo sapiens, UniProt Q86SK9)      2900 nM
2  Cn1nc(NC(=O)N2CCC(F)(Cc3cc(F)cc(F)c3)CC2)ccc1=O [Compound 59]  SCD5 (Homo sapiens, UniProt Q86SK9)     11000 nM
3  Cn1nc(NC(=O)N2CCC(Cc3cc(Cl)cc(C#N)c3)CC2)ccc1=O [Compound 57]  SCD5 (Homo sapiens, UniProt Q86SK9)      2600 nM
4  Cn1nc(NC(=O)N2CCC(Oc3cccc(F)c3C(F)(F)F)CC2)ccc1=O [Compound 84]  SCD5 (Homo sapiens, UniProt Q86SK9)       170 nM

Data point: Cn1nc(-c2noc(N3CCC(Cc4ccc(F)c(F)c4)CC3)n2)ccc1=O [Compound 123] ; IC50 = 1400 nM
